Item-by-item account of glycan array binding signal (z-score)
- TARGET: GlcNAc(a1-4)Gal(b1-4)GlcNAc
- METHOD DESCRIPTION: glycan array binding signal (z-score within array); higher = stronger binding
- ASSAY SETUP: glycan notation: IUPAC condensed, linker removed
About 410 targets per protein were measured; listed, in parts, are those with the strongest signals and a random draw of the rest.
// no unit string in output, number only

Examples with answers:
{"columns": ["BINDER", "glycan array binding signal (z-score)"],
 "data": [
  ["SSR1 (Sclerotium rolfsii), A0A0M3KL30 (protein) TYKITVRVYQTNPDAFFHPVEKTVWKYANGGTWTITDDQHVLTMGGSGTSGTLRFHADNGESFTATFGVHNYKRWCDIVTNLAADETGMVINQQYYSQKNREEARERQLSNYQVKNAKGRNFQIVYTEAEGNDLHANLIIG", 3.11],
  ["SAOUHSC 02783 (Staphylococcus aureus), Q5HD69 (protein) MIHSKKLTLGICLVLLIILIVGYVIMTKTNGRNAQIKDTFNQTLKLYPTKNLDDFYDKEGFRDQEFKKGDKGTWIVNSEMVIEPKGKDMETRGMVLYINRNTRTTKGYYFISEMTDDSNGRPKDDEKRYPVKMEHNKIIPTKPLPNDKLKKEIENFKFFVQYGNFKDINDYKDGDISYNPNVPSYSAKYQLNNDDYNVQQLRKRYDIPTKQAPKLLLKGDGDLKGSSVGSRSLEFTFVENKEENIYFTDSVQYTPSEDTRYESN", -0.454],
  ["Epa3to1 (Candida glabrata) (protein) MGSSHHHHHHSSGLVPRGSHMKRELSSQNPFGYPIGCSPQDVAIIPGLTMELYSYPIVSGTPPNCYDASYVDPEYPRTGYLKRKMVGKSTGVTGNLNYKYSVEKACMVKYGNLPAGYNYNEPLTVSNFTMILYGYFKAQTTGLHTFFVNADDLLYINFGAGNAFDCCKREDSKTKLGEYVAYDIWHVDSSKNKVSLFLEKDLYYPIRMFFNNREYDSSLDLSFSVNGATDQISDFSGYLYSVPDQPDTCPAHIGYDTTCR", -0.345]
]}

Returns the measured glycan array binding signal (z-score) for the input binder. Input: FimA-N1 (Actinomyces oris) (protein) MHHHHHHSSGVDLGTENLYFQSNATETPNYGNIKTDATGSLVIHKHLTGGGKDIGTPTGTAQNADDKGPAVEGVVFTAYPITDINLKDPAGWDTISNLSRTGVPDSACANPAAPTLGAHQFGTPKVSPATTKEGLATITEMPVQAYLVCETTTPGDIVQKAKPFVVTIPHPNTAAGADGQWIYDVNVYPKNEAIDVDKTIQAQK
-0.509

All figures here come from the supplement of paper PMC8728848.
